targetSystem: soybean lipoxygenase (Glycine max, UniProt P08170)
Construct: purchased Sigma Chemical, Co. (St. Louis, MO, USA)
Sequence (P08170 whole entry): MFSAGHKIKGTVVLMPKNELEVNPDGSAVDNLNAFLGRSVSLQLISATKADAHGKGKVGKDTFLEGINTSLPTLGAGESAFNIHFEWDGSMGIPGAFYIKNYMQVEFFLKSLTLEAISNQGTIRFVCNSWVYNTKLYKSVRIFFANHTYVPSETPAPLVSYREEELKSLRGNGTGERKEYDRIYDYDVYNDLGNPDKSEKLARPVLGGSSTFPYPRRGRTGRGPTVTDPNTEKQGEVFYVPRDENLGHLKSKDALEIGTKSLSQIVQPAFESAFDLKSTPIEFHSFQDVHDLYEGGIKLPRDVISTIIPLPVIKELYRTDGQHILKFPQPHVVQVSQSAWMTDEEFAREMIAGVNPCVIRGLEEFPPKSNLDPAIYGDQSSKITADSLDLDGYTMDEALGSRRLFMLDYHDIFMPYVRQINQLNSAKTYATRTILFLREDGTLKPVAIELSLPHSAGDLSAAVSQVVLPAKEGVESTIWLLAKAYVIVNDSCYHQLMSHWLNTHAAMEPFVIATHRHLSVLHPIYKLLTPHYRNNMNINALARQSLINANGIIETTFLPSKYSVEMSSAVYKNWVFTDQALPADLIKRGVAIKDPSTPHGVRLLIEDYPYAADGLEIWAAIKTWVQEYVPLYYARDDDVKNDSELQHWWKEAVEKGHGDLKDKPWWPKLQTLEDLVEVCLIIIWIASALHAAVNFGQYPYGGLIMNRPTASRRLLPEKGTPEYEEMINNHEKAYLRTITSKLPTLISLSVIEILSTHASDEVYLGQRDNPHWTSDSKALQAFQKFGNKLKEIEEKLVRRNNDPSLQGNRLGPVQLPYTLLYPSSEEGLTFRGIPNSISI
testDescription: Soybean lipoxygenase inhibition study
Assay type: biochemical
cond: 100 μM
Protocol: For the in vitro assays, a stock solution (1% DMSO in the appropriate buffer with the tested compound diluted under sonification) was prepared from which several dilutions were made with the appropriate buffer. DMSO solution of the tested compound (stock solutions 10 mM) was incubated with sodium linoleate (0.1 mM) and 0.2 mL of soybean lipoxygenase solution (1/9 × 10^−4 w/v in saline) at room temperature. The test follows our previous published methods. […]
metricName: LOX % inhibition 100 μM (%)
Report as a plain number; the unit % is understood.

Reported LOX % inhibition 100 μM, compound O=C(N/C(=C\c1cccs1)C(=O)N1CCOCC1)c1ccccc1 [Compound 3c] : ____
39

Please give the result for O=C(N/C(=C\c1cccc2ccccc12)C(=O)N1CCOCC1)c1ccccc1 [Compound 3d] too.
37

And what about the compound CCOC(=O)/C(=C/c1cccs1)NC(=O)c1ccccc1 [Compound 6c] ?
36

Another compound to look at: O=C(N/C(=C\c1cccs1)C(=O)N1CCCCC1)c1ccccc1 [Compound 5c]
41

Cool, now O=C1OC(c2ccccc2)=N/C1=C\c1cccc2ccccc12 [Compound 2d]
49

The values you see were collected from paper PMC7397336.
